# Test system: DB cells
# procedure.summary: BTK (wt) cell proliferation, DB (CellTiter-Glo, 72 h);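 further: DB cells in 384-well plates given a dilution series of compound, viable cells read by ATP luminescence, growth expressed versus DMSO control after subtracting a time-zero plate reading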
# Format: cell-based
# study.conditions: Homo sapiens, DB, DB cells, CellTiter-Glo, read-out: Non-BCR activated DB GI50
Known GI50 of a selection of compounds

compound: C=CC(=O)Nc1cc(Nc2ncnc(Nc3cc(F)c(Cl)cc3C(C)(C)O)n2)c(OC)cc1N1CC[C@@H]1CN(C)C
GI50: > 3 µM
--
compound: C=CC(=O)Nc1cc(Nc2ncnc(Nc3cc(Cl)c(F)cc3C(C)(O)CC)n2)c(OC)cc1N1CC[C@@H]1CN(C)C (stereo partly shown)
GI50: > 3 µM
--
compound: C=CC(=O)Nc1cc(Nc2ncnc(Nc3cc(Cl)c(F)cc3C(C)(C)O)n2)c(OC)cc1N1CCOC[C@@H]1CN(C)C
GI50: > 3 µM
--
compound: C=CC(=O)Nc1cc(Nc2ncnc(Nc3ccc(F)c(F)c3C(C)(C)O)n2)c(OC)cc1N(C)CCN(C)C
GI50: > 3 µM
--
compound: C=CC(=O)Nc1cc(Nc2ncnc(Nc3cc(F)c(F)cc3C(C)(C)O)n2)c(OC)cc1N(C)CCN(C)C
GI50: > 3 µM
--
compound: C=CC(=O)Nc1cc(Nc2ncnc(Nc3cc(Cl)c(F)cc3C(C)(C)O)n2)c(OC)cc1N(C)C[C@@H]1CCCN1C
GI50: > 3 µM
--
compound: C=CC(=O)Nc1cc(Nc2ncnc(Nc3cc(Cl)c(F)cc3C(C)(C)O)n2)c(OC)cc1N1CC[C@H](N(C)C)C1
GI50: > 3 µM

----------
molecules and their reported IC50
# subject.of.test: EGFR L858R&T790M (Homo sapiens, UniProt P00533, L858R/T790M)
# Sequence (P00533 25-1210 T790M/L858R): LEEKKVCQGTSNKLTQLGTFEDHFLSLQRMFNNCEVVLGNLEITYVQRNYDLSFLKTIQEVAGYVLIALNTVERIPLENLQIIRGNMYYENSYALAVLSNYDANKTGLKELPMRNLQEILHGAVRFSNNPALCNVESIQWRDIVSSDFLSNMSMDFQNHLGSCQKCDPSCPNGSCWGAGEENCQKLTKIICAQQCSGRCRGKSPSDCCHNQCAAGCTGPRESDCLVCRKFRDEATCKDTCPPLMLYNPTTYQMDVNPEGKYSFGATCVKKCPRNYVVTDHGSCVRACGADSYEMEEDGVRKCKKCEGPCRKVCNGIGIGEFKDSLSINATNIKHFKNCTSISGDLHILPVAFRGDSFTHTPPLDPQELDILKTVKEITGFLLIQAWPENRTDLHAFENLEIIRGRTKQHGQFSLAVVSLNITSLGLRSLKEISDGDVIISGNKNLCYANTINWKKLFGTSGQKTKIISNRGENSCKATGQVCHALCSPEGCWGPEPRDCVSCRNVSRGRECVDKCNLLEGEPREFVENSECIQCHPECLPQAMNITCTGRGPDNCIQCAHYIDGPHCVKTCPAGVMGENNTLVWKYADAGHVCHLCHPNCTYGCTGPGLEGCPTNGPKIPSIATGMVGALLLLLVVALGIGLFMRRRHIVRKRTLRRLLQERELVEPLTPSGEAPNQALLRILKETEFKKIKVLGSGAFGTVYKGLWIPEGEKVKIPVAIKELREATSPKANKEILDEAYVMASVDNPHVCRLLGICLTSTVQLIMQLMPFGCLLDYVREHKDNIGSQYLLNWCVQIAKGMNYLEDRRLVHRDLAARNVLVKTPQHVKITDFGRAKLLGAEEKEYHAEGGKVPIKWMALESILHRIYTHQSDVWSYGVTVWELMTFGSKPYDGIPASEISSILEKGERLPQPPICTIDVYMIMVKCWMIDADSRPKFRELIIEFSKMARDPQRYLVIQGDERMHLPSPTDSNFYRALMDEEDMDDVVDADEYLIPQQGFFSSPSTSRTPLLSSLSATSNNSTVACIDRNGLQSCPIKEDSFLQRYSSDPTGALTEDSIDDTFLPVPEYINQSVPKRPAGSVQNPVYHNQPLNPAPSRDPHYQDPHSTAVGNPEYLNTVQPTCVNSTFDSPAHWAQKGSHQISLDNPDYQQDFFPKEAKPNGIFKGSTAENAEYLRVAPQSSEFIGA
# procedure.summary: EGFR L858R and T790M cellular phosphorylation inhibition in NCI-H1975 (MSD);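 further: phosphorylated and total EGFR detected by electrochemiluminescence, cells exposed to compound in medium containing 1% FBS at 37 °C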
# study.conditions: NCI-H1975 cells, 4 h compound, p-EGFR(Y1068)/total EGFR; read-out: EGFR L858R and T790M mutation IC50
Counter-ions that a name gives are not always drawn.

molecule: C=CC(=O)Nc1cc(Nc2nccc(Nc3cc(Cl)c(F)cc3C(C)(O)C(F)(F)F)n2)c(OC)cc1N1CC[C@@H](N(C)C)C1 (some centres unmarked)
subject.of.test: EGFR L858R&T790M (Homo sapiens, UniProt P00533, L858R/T790M)
value.unit: nM
IC50: 1.7
//
molecule: C=CC(=O)Nc1cc(Nc2ncnc(Nc3ccc4[nH]ccc4c3C(C)(C)O)n2)c(OC)cc1N(C)CCN(C)C
subject.of.test: EGFR L858R&T790M (Homo sapiens, UniProt P00533, L858R/T790M)
value.unit: nM
IC50: 0.7
//
molecule: C=CC(=O)Nc1cc(Nc2ncnc(Nc3cc(F)c(F)cc3C(C)(O)CC)n2)c(OC)cc1N1CC[C@@H](N(C)C)C1 (some centres unmarked)
subject.of.test: EGFR L858R&T790M (Homo sapiens, UniProt P00533, L858R/T790M)
value.unit: nM
IC50: 0.4
//
molecule: C=CC(=O)Nc1cc(Nc2ncnc(Nc3ccccc3C(C)(O)C(F)(F)F)n2)c(OC)cc1N(C)CCN(C)C (centres unmarked)
subject.of.test: EGFR L858R&T790M (Homo sapiens, UniProt P00533, L858R/T790M)
value.unit: nM
IC50: 0.6
//
molecule: C=CC(=O)Nc1cc(Nc2ncnc(Nc3cc(F)c(Cl)cc3C(C)(C)O)n2)c(OC)cc1N(C)CCN(C)C
subject.of.test: EGFR L858R&T790M (Homo sapiens, UniProt P00533, L858R/T790M)
value.unit: nM
IC50: 0.3
//
molecule: C=CC(=O)Nc1cc(Nc2ncnc(Nc3cc(Cl)c(F)cc3C(C)(C)O)n2)c(OC)cc1N1CC[C@H](N(C)C)C1
subject.of.test: EGFR L858R&T790M (Homo sapiens, UniProt P00533, L858R/T790M)
value.unit: nM
IC50: 1.3
//
molecule: C=CC(=O)Nc1cc(Nc2nccc(Nc3cc(Cl)c(F)cc3C(C)(C)O)n2)c(OC)cc1N1CC[C@H](N(C)C)C1
subject.of.test: EGFR L858R&T790M (Homo sapiens, UniProt P00533, L858R/T790M)
value.unit: nM
IC50: 1
//
molecule: C=CC(=O)Nc1cc(Nc2nccc(Nc3cc(Cl)c(F)cc3C(C)(C)O)n2)c(OC)cc1N1C[C@@H]2CN(C)C[C@@H]21
subject.of.test: EGFR L858R&T790M (Homo sapiens, UniProt P00533, L858R/T790M)
value.unit: nM
IC50: 0.4
//
molecule: C=CC(=O)Nc1cc(Nc2ncnc(Nc3cc(Cl)c(Cl)cc3C(C)(C)O)n2)c(OC)cc1N1CC[C@@H]1CN(C)C
subject.of.test: EGFR L858R&T790M (Homo sapiens, UniProt P00533, L858R/T790M)
value.unit: nM
IC50: 2.4
//
molecule: C=CC(=O)Nc1cc(Nc2ncnc(Nc3cc(Cl)c(F)cc3C(C)(O)CC)n2)c(OC)cc1N1CC[C@@H](N(C)C)C1 (some centres unmarked) [Compound 59]
subject.of.test: EGFR L858R&T790M (Homo sapiens, UniProt P00533, L858R/T790M)
value.unit: nM
IC50: 0.5
//
molecule: C=CC(=O)Nc1cc(Nc2ncnc(Nc3cc4ccn(C)c4cc3C(C)(C)O)n2)c(OC)cc1N(C)CCN(C)C
subject.of.test: EGFR L858R&T790M (Homo sapiens, UniProt P00533, L858R/T790M)
value.unit: nM
IC50: 0.4
//
molecule: C=CC(=O)Nc1cc(Nc2ncnc(Nc3cc(Cl)c(Cl)cc3C(C)(C)O)n2)c(OC)cc1N(C)CCN(C)C
subject.of.test: EGFR L858R&T790M (Homo sapiens, UniProt P00533, L858R/T790M)
value.unit: nM
IC50: 0.4
//
molecule: C=CC(=O)Nc1cc(Nc2ncnc(Nc3cc(Cl)c(F)cc3C(C)(C)O)n2)c(OC)cc1N(C)CCN1CCCC1
subject.of.test: EGFR L858R&T790M (Homo sapiens, UniProt P00533, L858R/T790M)
value.unit: nM
IC50: 1
//
molecule: C=CC(=O)Nc1cc(Nc2nccc(Nc3cc(Cl)c(F)cc3C(C)(O)CC)n2)c(OC)cc1N1CC[C@@H](N(C)C)C1 (single isomer, unassigned) [Compound 76]
subject.of.test: EGFR L858R&T790M (Homo sapiens, UniProt P00533, L858R/T790M)
value.unit: nM
IC50: 1.8
//
molecule: C=CC(=O)Nc1cc(Nc2ncc(Cl)c(Nc3cc(Cl)c(F)cc3C(C)(C)O)n2)c(OC)cc1N1CC[C@@H](N(C)C)C1
subject.of.test: EGFR L858R&T790M (Homo sapiens, UniProt P00533, L858R/T790M)
value.unit: nM
IC50: 0.4
//
molecule: C=CC(=O)Nc1cc(Nc2ncnc(Nc3cc(Cl)c(F)cc3C(C)(C)O)n2)c(OC)cc1N1CC[C@@H]2CN(C)C[C@@H]21
subject.of.test: EGFR L858R&T790M (Homo sapiens, UniProt P00533, L858R/T790M)
value.unit: nM
IC50: 1.4
//
molecule: C=CC(=O)Nc1cc(Nc2nccc(Nc3cc(Cl)c(F)cc3C(C)(C)O)n2)c(OC)cc1N1C[C@H]2CN(C)[C@H]2C1 [Compound 89, formic acid salt]
subject.of.test: EGFR L858R&T790M (Homo sapiens, UniProt P00533, L858R/T790M)
value.unit: nM
IC50: 0.7
//
molecule: C=CC(=O)Nc1cc(Nc2ncnc(Nc3cc(Cl)c(F)cc3C(C)(C)O)n2)c(OC)cc1N(C)CCN(C)C
subject.of.test: EGFR L858R&T790M (Homo sapiens, UniProt P00533, L858R/T790M)
value.unit: nM
IC50: 0.3
//
molecule: C=CC(=O)Nc1cc(Nc2ncnc(Nc3cc(F)c(C4CC4)cc3C(C)(C)O)n2)c(OC)cc1N1CC[C@@H]2CN(C)C[C@@H]21
subject.of.test: EGFR L858R&T790M (Homo sapiens, UniProt P00533, L858R/T790M)
value.unit: nM
IC50: 0.3
//
molecule: C=CC(=O)Nc1cc(Nc2nccc(Nc3cc(Cl)c(F)cc3C(C)(C)O)n2)c(OC)cc1N1CC[C@@H]1CN(C)C
subject.of.test: EGFR L858R&T790M (Homo sapiens, UniProt P00533, L858R/T790M)
value.unit: nM
IC50: 1.1
//
molecule: [2H]C([2H])([2H])N(CCN(C)c1cc(OC)c(Nc2ncnc(Nc3cc(F)c(F)cc3C(C)(C)O)n2)cc1NC(=O)C=C)C([2H])([2H])[2H]
subject.of.test: EGFR L858R&T790M (Homo sapiens, UniProt P00533, L858R/T790M)
value.unit: nM
IC50: 0.4
//
molecule: C=CC(=O)Nc1cc(Nc2nccc(Nc3cc(Cl)c(F)cc3C(C)(C)O)n2)c(OC)cc1N1C[C@@H](C)C[C@@H]1CN(C)C
subject.of.test: EGFR L858R&T790M (Homo sapiens, UniProt P00533, L858R/T790M)
value.unit: nM
IC50: 1.5
//
molecule: C=CC(=O)Nc1cc(Nc2nccc(Nc3cc(Cl)c(F)cc3C(C)(C)O)n2)c(OC)cc1N1CC[C@@H](N(C)C)C1
subject.of.test: EGFR L858R&T790M (Homo sapiens, UniProt P00533, L858R/T790M)
value.unit: nM
IC50: 1.1
//
molecule: C=CC(=O)Nc1cc(Nc2nccc(Nc3cc(Cl)c(F)cc3C(C)(C)O)n2)c(OC)cc1N1CC[C@@H](NC)C1 [Compound 80, TFA salt]
subject.of.test: EGFR L858R&T790M (Homo sapiens, UniProt P00533, L858R/T790M)
value.unit: nM
IC50: 4.5
//
molecule: C=CC(=O)Nc1cc(Nc2ncnc(Nc3cc(F)c(F)cc3C(C)(O)CC)n2)c(OC)cc1N1CCC[C@@H]1CN(C)C (some centres unmarked)
subject.of.test: EGFR L858R&T790M (Homo sapiens, UniProt P00533, L858R/T790M)
value.unit: nM
IC50: 0.4
//
molecule: C=CC(=O)Nc1cc(Nc2ncnc(Nc3cc(C4CC4)c(F)cc3C(C)(C)O)n2)c(OC)cc1N(C)CCN(C)C
subject.of.test: EGFR L858R&T790M (Homo sapiens, UniProt P00533, L858R/T790M)
value.unit: nM
IC50: 3.7

Values compiled from patent US20230293535A1.
